molecular target: Human CD4 on CD4+CD25+ regulatory T cells of healthy donors (human, UniProt P01730 26-458); test: cell-based or functional assay
Please respond with reported % Inh2 for every item in the list.

Worked examples follow.
binder	% Inh2
LC master HC Y105W (antibody, V domains shown) VH: EEQLVESGGGLVKPGGSLRLSCAASGFSFSDCRMYWLRQAPGKGLEWIGVISVKSENYGANYAESVRGRFTISRDDSKNTVYLQMNSLKTEDTAVYYCSASYYRWDVGAWFAYWGQGTLVTVSS VL: DIVMTQSPDSLAVSLGERATINCRASKSVSTSGYSYIYWYQQKPGQPPKLLIYLASILESGVPDRFSGSGSGTDFTLTISSLQAEDVAVYYCQHSRELPWTFGQGTKVEIKR	2%
LC master HC A63G (antibody, V domains shown) VH: EEQLVESGGGLVKPGGSLRLSCAASGFSFSDCRMYWLRQAPGKGLEWIGVISVKSENYGANYGESVRGRFTISRDDSKNTVYLQMNSLKTEDTAVYYCSASYYRYDVGAWFAYWGQGTLVTVSS VL: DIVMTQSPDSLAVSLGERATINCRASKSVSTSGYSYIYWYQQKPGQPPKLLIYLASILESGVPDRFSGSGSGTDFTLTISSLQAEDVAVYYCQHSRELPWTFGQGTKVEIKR	25.5%

Would you mind telling me what % Inh2 value was observed for HC master LC L98I (antibody, V domains shown) VH: EEQLVESGGGLVKPGGSLRLSCAASGFSFSDCRMYWLRQAPGKGLEWIGVISVKSENYGANYAESVRGRFTISRDDSKNTVYLQMNSLKTEDTAVYYCSASYYRYDVGAWFAYWGQGTLVTVSS VL: DIVMTQSPDSLAVSLGERATINCRASKSVSTSGYSYIYWYQQKPGQPPKLLIYLASILESGVPDRFSGSGSGTDFTLTISSLQAEDVAVYYCQHSREIPWTFGQGTKVEIKR ? 8.4%
